targetOrSystem: full-length elephant shark MR (Callorhinchus milii, UniProt A0A4W3I5J5)
Construct: gene nr3c2; full coding region in pcDNA3.1, expressed in HEK293 cells
Sequence (A0A4W3I5J5 1-956): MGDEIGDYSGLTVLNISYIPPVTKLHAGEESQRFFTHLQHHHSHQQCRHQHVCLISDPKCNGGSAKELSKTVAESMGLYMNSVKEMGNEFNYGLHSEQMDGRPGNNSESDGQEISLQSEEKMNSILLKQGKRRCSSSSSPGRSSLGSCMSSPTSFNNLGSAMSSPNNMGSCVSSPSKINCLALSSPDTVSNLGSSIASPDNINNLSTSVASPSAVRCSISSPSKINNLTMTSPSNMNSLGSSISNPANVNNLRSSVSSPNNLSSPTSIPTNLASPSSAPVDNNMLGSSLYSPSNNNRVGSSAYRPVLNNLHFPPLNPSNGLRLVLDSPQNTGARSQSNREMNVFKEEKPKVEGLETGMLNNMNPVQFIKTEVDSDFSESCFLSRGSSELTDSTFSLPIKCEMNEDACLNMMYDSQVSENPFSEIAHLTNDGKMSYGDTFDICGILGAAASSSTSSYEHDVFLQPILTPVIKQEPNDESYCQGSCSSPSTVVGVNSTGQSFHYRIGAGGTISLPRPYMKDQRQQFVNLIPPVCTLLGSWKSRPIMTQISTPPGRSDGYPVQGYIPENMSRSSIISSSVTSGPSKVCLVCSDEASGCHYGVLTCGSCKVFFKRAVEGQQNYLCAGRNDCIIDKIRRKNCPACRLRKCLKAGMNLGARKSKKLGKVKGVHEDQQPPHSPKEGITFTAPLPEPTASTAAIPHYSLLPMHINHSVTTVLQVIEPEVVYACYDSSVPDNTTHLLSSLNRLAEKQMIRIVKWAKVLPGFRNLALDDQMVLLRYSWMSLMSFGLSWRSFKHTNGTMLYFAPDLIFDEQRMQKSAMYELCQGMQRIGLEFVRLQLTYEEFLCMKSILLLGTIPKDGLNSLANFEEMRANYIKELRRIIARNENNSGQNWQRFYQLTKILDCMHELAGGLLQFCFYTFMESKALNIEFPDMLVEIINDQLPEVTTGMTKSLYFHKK
method: cell-based
Set-up: transcriptional activation of full-length MR, MMTV-luciferase reporter, concentration-response
conditionNotes: HEK293; relative to aldosterone = 100%; read-out: % relative to Aldo
Measured Emax, listed per entry for reference.
Write the value in % as a bare number.

C[C@]12C[C@H](O)[C@H]3[C@@H](CCC4=CC(=O)CC[C@@]43C)[C@@H]1CC[C@@H]2C(=O)CO = 101
CC(=O)S[C@@H]1CC2=CC(=O)CC[C@]2(C)[C@H]2CC[C@@]3(C)[C@@H](CC[C@@]34CCC(=O)O4)[C@H]12 = 45
C[C@]12CCC(=O)C=C1CC[C@@H]1[C@@H]2CC[C@@]2(C)[C@H]1CC[C@]2(O)C(=O)CO = 83
CC(=O)[C@H]1CC[C@H]2[C@@H]3CCC4=CC(=O)CC[C@]4(C)[C@H]3CC[C@]12C = 43
C[C@]12CCC(=O)C=C1CC[C@@H]1[C@@H]2[C@@H](O)C[C@@]2(C)[C@H]1CC[C@]2(O)C(=O)CO = 114
C[C@]12CC[C@H]3[C@@H](CCC4=CC(=O)CC[C@@]43C)[C@@H]1CC[C@@H]2C(=O)CO = 83

stdin: Provide the documented Emax with full-length elephant shark MR (Callorhinchus milii, UniProt A0A4W3I5J5) as the system for CC(=O)[C@@]1(O)CC[C@H]2[C@@H]3CCC4=CC(=O)CC[C@]4(C)[C@H]3CC[C@@]21C [17OH-Prog]
stdout: 25

stdin: Under full-length elephant shark MR (Callorhinchus milii, UniProt A0A4W3I5J5): Emax value of `CC(=O)[C@H]1CC[C@H]2[C@@H]3CCC4=CC(=O)CC[C@@H]4[C@H]3CC[C@]12C` ?
stdout: 84

====

Measured Emax, listed per entry.
targetOrSystem: truncated elephant shark MR (GAL4-DBD-MR-LBD) (Callorhinchus milii)
Construct: gene nr3c2
method: cell-based
Design: transcriptional activation of truncated GAL4-DBD-MR-LBD, luciferase reporter, concentration-response
conditionNotes: HEK293; relative to aldosterone = 100%; read-out: % relative to Aldo
Report only the number, with the unit % understood.

# annotated cases, reported Emax shown
CC(=O)[C@@]1(O)CC[C@H]2[C@@H]3CCC4=CC(=O)CC[C@]4(C)[C@H]3CC[C@@]21C [17OH-Prog] = 26
C[C@]12C[C@H](O)[C@H]3[C@@H](CCC4=CC(=O)CC[C@@]43C)[C@@H]1CC[C@@H]2C(=O)CO = 90

stdin: I would be grateful if you could share the reported Emax for `C[C@]12CCC(=O)C=C1CC[C@@H]1[C@@H]2[C@@H](O)C[C@@]2(C)[C@H]1CC[C@]2(O)C(=O)CO` .
stdout: 79

stdin: Find the recorded Emax belonging to `CC(=O)[C@H]1CC[C@H]2[C@@H]3CCC4=CC(=O)CC[C@]4(C)[C@H]3CC[C@]12C` and report it.
stdout: 40
